# measurement_description: Mouse PK Study
# Type: in vivo
# assay_conditions: plasma; Iv dosing (1 mg/kg), male CD-1 mouse
metric: clearance (mL/min/kg)
Your answer is read as mL/min/kg, so omit the unit and give the number.

Illustrative cases are given below, each with its answer.
molecule	unit	clearance
COc1ccc(CN2CCN(C3CC4(CCN(c5ccc(C(=O)NS(=O)(=O)c6ccc(NC[C@H]7CC[C@](C)(O)CC7)c([N+](=O)[O-])c6)c(Oc6cnc7[nH]ccc7c6)c5)CC4)C3)[C@H](c3ccccc3C(C)C)C2)cc1 [Example 19a]	mL/min/kg	1.4
COc1ccc(CN2CCN(C3CC4(CCN(c5ccc(C(=O)NS(=O)(=O)c6ccc(NCC7(F)CCOCC7)c([N+](=O)[O-])c6)c(Oc6cnc7[nH]ccc7c6)c5)CC4)C3)[C@H](c3ccccc3C(C)C)C2)cc1 (single isomer, unassigned)	mL/min/kg	1.5
COc1cc(CN2CCN(C3CC4(C3)CN(c3ccc(C(=O)NS(=O)(=O)c5ccc(NC[C@H]6CC[C@](C)(O)CC6)c([N+](=O)[O-])c5)c(Oc5cnc6[nH]cc(F)c6c5)c3)C4)[C@H](c3ccccc3C(C)C)C2)ccc1C1CC1	mL/min/kg	1.2
COc1cc(CN2CCN(C3CC4(C3)CN(c3ccc(C(=O)NS(=O)(=O)c5ccc(NC[C@H]6CC[C@](C)(O)CC6)c([N+](=O)[O-])c5)c(Oc5cnc6[nH]ccc6c5)c3)C4)[C@H](c3ccccc3C(C)C)C2)ccc1C1CC1	mL/min/kg	1
CC(C)c1ccccc1[C@@H]1CN(Cc2ccc(F)c(F)c2)CCN1C1CC2(CCN(c3ccc(C(=O)NS(=O)(=O)c4ccc(NC[C@H]5CC[C@](C)(O)CC5)c([N+](=O)[O-])c4)c(Oc4cnc5[nH]ccc5c4)c3)CC2)C1 (single isomer, unassigned) [Example 52a]	mL/min/kg	2.6

Data request: Quickly give me recorded clearance for COc1cc(CN2CCN(C3CC4(C3)CN(c3ccc(C(=O)NS(=O)(=O)c5ccc(NC[C@H]6CC[C@](C)(O)CC6)c([N+](=O)[O-])c5)c(Oc5cnc6[nH]cc(F)c6c5)c3)C4)[C@H](c3ccccc3C(C)C)C2)cc2cc(C)oc12
Data returned: 0.4

====

# assayed_target: recombinant human Bcl-2-G101V protein (Homo sapiens (Human), UniProt P10415, G101V)
# measurement_description: Bcl-2-G101V TR-FRET Assay
# Format: binding
# assay_conditions: Bcl-2 G101V mutant, TR-FRET; read-out: Biochemical assay (IC50, nM) Bcl-2 G101V
metric: IC50 (nM)
Your answer is read as nM, so omit the unit and give the number.

molecule	metric	unit	test_result
COc1cc(CN2CCN(C3CC4(CCN(c5ccc(C(=O)NS(=O)(=O)c6ccc(NC[C@H]7CC[C@](C)(O)CC7)c([N+](=O)[O-])c6)c(Oc6cnc7[nH]ccc7c6)c5)CC4)C3)C(c3ccccc3C(C)C)C2)cc(C)c1OC (some centres unmarked)	IC50	nM	0.75

Next, consider the following molecule.
Data request: Quickly give me recorded IC50 for CCc1cc(CN2CCN(C3CC4(CCN(c5ccc(C(=O)NS(=O)(=O)c6ccc(NC[C@H]7CC[C@](C)(O)CC7)c([N+](=O)[O-])c6)c(Oc6cnc7[nH]ccc7c6)c5)CC4)C3)C(c3ccccc3C(C)C)C2)ccc1OC (some centres unmarked)
Data returned: 2

====

# assayed_target: recombinant human Bcl-2-G101V protein (Homo sapiens (Human), UniProt P10415, G101V)
# measurement_description: Bcl-2-G101V TR-FRET Assay
# Format: binding
# assay_conditions: Bcl-2 G101V mutant, TR-FRET; read-out: Biochemical assay (IC50, nM) Bcl-2 G101V
metric: IC50

compound	IC50
COc1ccc(CN2CCN(C3CC4(C3)CN(c3ccc(C(=O)NS(=O)(=O)c5ccc(NCC67CC8CC(C6)C(OC)C(C8)C7)c([N+](=O)[O-])c5)c(Oc5cnc6[nH]cc(F)c6c5)c3)C4)[C@H](c3ccccc3C(C)C)C2)cc1 (stereo partly shown)	4.2 nM

Data request: Quickly give me recorded IC50 for COc1cnc(CN2CCN(C3CC4(CCN(c5ccc(C(=O)NS(=O)(=O)c6ccc(NC[C@H]7CC[C@](C)(O)CC7)c([N+](=O)[O-])c6)c(Oc6cnc7[nH]ccc7c6)c5)CC4)C3)C(c3ccccc3C(C)C)C2)cn1 (stereo partly shown)
Data returned: 0.3 nM

Data request: Quickly give me recorded IC50 for CC(C)c1ccccc1C1CN(Cc2cccc3c2CCCC3)CCN1C1CC2(CCN(c3ccc(C(=O)NS(=O)(=O)c4ccc(NCC5CCOCC5)c([N+](=O)[O-])c4)c(Oc4cnc5[nH]ccc5c4)c3)CC2)C1 (stereo not shown)
Data returned: 13 nM

Data request: Quickly give me recorded IC50 for CC(C)c1ccccc1C1CN(Cc2ccc(Cl)c(Cl)c2)CCN1C1CC2(CCN(c3ccc(C(=O)NS(=O)(=O)c4ccc(NC[C@H]5CC[C@](C)(O)CC5)c([N+](=O)[O-])c4)c(Oc4cnc5[nH]ccc5c4)c3)CC2)C1 (stereo partly shown)
Data returned: 7.1 nM

Data request: Quickly give me recorded IC50 for COc1ccc(CN2CCN(C3CC4(C3)CN(c3ccc(C(=O)NS(=O)(=O)c5ccc(NC[C@H]6CC[C@](C)(O)CC6)c([N+](=O)[O-])c5)c(Oc5cnc6[nH]cc(F)c6c5)c3)C4)[C@H](c3ccccc3C(C)C)C2)nc1
Data returned: 0.096 nM

Data request: Quickly give me recorded IC50 for COc1cc(CN2CCN(C3CC4(C3)CN(c3ccc(C(=O)NS(=O)(=O)c5ccc(NC[C@H]6CC[C@](C)(O)CC6)c([N+](=O)[O-])c5)c(Oc5cnc6[nH]cc(F)c6c5)c3)C4)[C@H](c3ccccc3C(C)C)C2)ccc1OC1COC1
Data returned: 0.11 nM

Data request: Quickly give me recorded IC50 for COc1cc(CN2CCN(C3CC4(C3)CN(c3ccc(C(=O)NS(=O)(=O)c5ccc(NC[C@H]6CC[C@](C)(O)CC6)c([N+](=O)[O-])c5)c(Oc5cnc6[nH]cc(F)c6c5)c3)C4)[C@H](c3ccccc3C(C)C)C2)cc2c1OCCC2(C)C
Data returned: 0.37 nM

Data request: Quickly give me recorded IC50 for COc1cc(CN2CCN(C3CC4(CCN(c5ccc(C(=O)NS(=O)(=O)c6ccc(NC[C@H]7CC[C@](C)(O)CC7)c([N+](=O)[O-])c6)c(Oc6cnc7[nH]ccc7c6)c5)CC4)C3)[C@H](c3ccccc3C(C)C)C2)cc2c1OCC2
Data returned: 0.2 nM

Data request: Quickly give me recorded IC50 for COc1cc(CN2CCN(C3CC4(CCN(c5ccc(C(=O)NS(=O)(=O)c6ccc(NC[C@H]7CC[C@](C)(O)CC7)c([N+](=O)[O-])c6)c(Oc6cnc7[nH]cc(Cl)c7c6)c5)CC4)C3)[C@H](c3ccccc3C(C)C)C2)ccc1C1CC1
Data returned: 3.5 nM

Data request: Quickly give me recorded IC50 for CC(C)c1ccccc1C1CN(Cc2cnn(C3CC3)c2)CCN1C1CC2(CCN(c3ccc(C(=O)NS(=O)(=O)c4ccc(NC[C@H]5CC[C@](C)(O)CC5)c([N+](=O)[O-])c4)c(Oc4cnc5[nH]ccc5c4)c3)CC2)C1 (stereo partly shown)
Data returned: 0.13 nM

Data request: Quickly give me recorded IC50 for CC(C)c1ccccc1C1CN(C2COC2)CCN1C1CC2(CCN(c3ccc(C(=O)NS(=O)(=O)c4ccc(NC[C@H]5CC[C@](C)(O)CC5)c([N+](=O)[O-])c4)c(Oc4cnc5[nH]ccc5c4)c3)CC2)C1 (stereo partly shown)
Data returned: 0.32 nM

====

# measurement_description: Metabolic Stability Study, liver microsome incubation (human)
# Format: in vitro ADME
# assay_conditions: human liver microsomes 0.5 mg/mL, 1 μM compound, NADPH; NA^# = very stable, beyond the detection limits; read-out: T1/2 (min) Human
In this section, each of the compounds is paired with its reported half-life at 1 μM.
Your answer is read as min, so omit the unit and give the number.

Illustrative cases are given below, each with its answer.
compound	half-life at 1 μM (min)
COc1cc(CN2CCN(C3CC4(C3)CN(c3ccc(C(=O)NS(=O)(=O)c5ccc(NC[C@H]6CC[C@](C)(O)CC6)c([N+](=O)[O-])c5)c(Oc5cnc6[nH]cc(F)c6c5)c3)C4)[C@H](c3ccccc3C(C)C)C2)cc2cc(C)oc12	659
COc1ccc(CN2CCN(C3CC4(C3)CN(c3ccc(C(=O)NS(=O)(=O)c5ccc(NC[C@H]6CC[C@](C)(O)CC6)c([N+](=O)[O-])c5)c(Oc5cnc6[nH]cc(F)c6c5)c3)C4)[C@H](c3ccccc3C(C)C)C2)cc1OC [Example 141a]	343
COc1cc(CN2CCN(C3CC4(CCN(c5ccc(C(=O)NS(=O)(=O)c6ccc(NC[C@H]7CC[C@](C)(O)CC7)c([N+](=O)[O-])c6)c(Oc6cnc7[nH]cc(F)c7c6)c5)CC4)C3)[C@H](c3ccccc3C(C)C)C2)cc2c1OCC2(C)C	299

Data request: Quickly give me recorded half-life at 1 μM for COc1ccc(CN2CCN(C3CC4(CCN(c5ccc(C(=O)NS(=O)(=O)c6ccc(NC[C@H]7COCCO7)c([N+](=O)[O-])c6)c(Oc6cnc7[nH]ccc7c6)c5)CC4)C3)[C@H](c3ccccc3C(C)C)C2)cc1 (single isomer, unassigned)
Data returned: 1820

// data source = patent US20240376097A1
